Values from PubChem BioAssay AID588342

Molecular target: Luciferin 4-monooxygenase (Photinus pyralis)
Experiment: qHTS profiling assay for firefly luciferase inhibitor/activator using purifed enzyme and Km concentrations of substrates (counterscreen for miR-21 project); also: nearly all actives have a fitted effect of over 55% in size
Conditions: purified FLuc, luminescence inhibition; series mostly up to 57.5 µM
Screen size: about 360,000 compounds; about 25,000 (6.9%) were called active. Not shown: some 9% with an inconclusive outcome. Calls follow the shape of the dose curve; as a rule, active = well fitted inhibition curve with a large enough effect; inconclusive = small, poorly fitted or top-dose-only effect; inactive = flat fitted curve, though single readings scatter. The entries come from a sample that favours actives as a whole.
Response enum: active, inactive

Below, 5 compounds whose answers are already recorded.
COC(=O)c1c(NC(=O)C(C)Oc2ccc(Cl)c(C)c2)sc(C)c1C (configuration not stated) :: inactive
CS(=O)(=O)Nc1ccccc1C(=O)OCC(=O)NC1CC1 :: inactive
c1ccc2[nH]c(-c3nc4ccccc4[nH]3)nc2c1 :: active
CCOC(=O)c1c(C)[nH]c(C)c1S(=O)(=O)NCC(=O)NCc1cccc(C)c1 :: inactive
Cc1ccc(CN2CC(C(=O)NNC(=O)Cn3ccc(C(F)(F)F)n3)CC2=O)cc1 (configuration not stated) :: inactive

[Q] Status in this test for CCCCc1ccc(NC(=S)NCCCN2CCOCC2)cc1 ?
[A] inactive

[Q] Status in this test for Cc1ccc(SCCSc2ncccn2)cc1 ?
[A] active

[Q] Status in this test for Cc1cccc(NC(=O)CSc2nnc(CNC(=O)c3cccc(C)c3)n2-c2ccccc2)c1 ?
[A] inactive

[Q] Status in this test for CCCN1CCN(CCCNC(=O)c2ccc3nc(Cc4ccccc4)oc3c2)CC1 ?
[A] inactive

[Q] Status in this test for Cc1nc(CNS(=O)(=O)c2cccnc2)cs1 ?
[A] inactive

[Q] Status in this test for COc1ccc(NS(=O)(=O)c2cc3c(cc2C)N(C(C)=O)CCO3)cc1 ?
[A] inactive

[Q] Status in this test for COc1ccccc1CNC(=O)c1ccc(-n2c(C)cc3c2CCCC3)cc1 ?
[A] inactive

[Q] Status in this test for Cc1ccc(C)c(N2CCN(C(=O)CCc3nc4ccccc4[nH]3)CC2)c1 ?
[A] inactive

[Q] Status in this test for Cc1ccc(C(=O)NCCc2nnc(SCC(=O)Nc3cccc(C(=O)O)c3)n2C)cc1 ?
[A] active

[Q] Status in this test for Cc1cccc(-n2ccnc2SCC(=O)Nc2cc(C(F)(F)F)ccc2Cl)c1 ?
[A] inactive
